Origin of the recorded values: the supplement of paper PMC9170038

Test system: K4 kissing-loop RNA reporter;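 further: bound reporter read as fluorescence of individual clusters on recovered sequencing chips by microscopy, with normalized cluster intensities fitted with a binding model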
Assay: apparent KD of K4 kissing-loop reporter; higher = weaker reporter binding
Settings: Eterna round: R107; input ligand: tryptophan 2.4 mM
# cutoff 200 nM applies to apparent KD of K4 kissing-loop reporter; >= gives true, < gives false

>  <BIOSEQUENCE>
UGAACUGUCUGCGAUACCAGCUAAGGAGUGAUGUUCCGGCUCGACGAAACGUCGAGCCAUAGCCCUUGGCAGCGCAGACAGUUCA [#28 K4 Theophylline B Same State]

>  <LABEL_CLASS>
true

$$$$
>  <BIOSEQUENCE>
GCGAAGAGAGAAGGAUAUUAGUAAUGCGUCAUGCGCCCUUACCAGUUAGUGAUGUUAACAAUACAUUAAGAAGGUCUCGGAAUCC [theeternabot_sameState_KL_FMN_B_50]

>  <LABEL_CLASS>
false

$$$$
>  <BIOSEQUENCE>
GGUAGCAUCGCGGCCGCCACUAAUCGCUAAGGCUCAGGACCCUAAUAGCGAGUGAUGUUCGCCCUUAGGACCGGGCGAUGCUACC

>  <LABEL_CLASS>
false

$$$$

Quick check, apparent KD of K4 kissing-loop reporter >= 200 nM? GCGCAUGUUAAAGGAUAUAGCAGGUGAUACAAGAAAGUGAGUGAUGUUUAUGUAGAUGAUGAUAUGUUAGAAGGUUAACAAGCGC [abcdefghijklmnop]
true

Quick check, apparent KD of K4 kissing-loop reporter >= 200 nM? GGUUUUAACCGCAGUGAUGUUGCGUUGAAACGAGGACCGGUACGGCCGCCACUCGAAAAGAAGCGGCCAAAUUAAAAUCGUAAAG [Exclusion Tryptophan A GF 23]
false

Quick check, apparent KD of K4 kissing-loop reporter >= 200 nM? UUUAUUAAGACGGCCGCCACUGAUUCAUAGUGAUGUUAUGAUAUAAUCUUAGUGAUAUUUAUAAACAGGACCGGGUCAAUUAUUA [JR_SSTryptoB_Sub026]
false

Quick check, apparent KD of K4 kissing-loop reporter >= 200 nM? AGUUUAGAGUGACUCGAUAAGAGUCACAAACGAGGACCGGUACGGCCGCCACUCGAAAUAACGAGAGUGAUGUUCUCGCUGGGCA [FiskerMod 3 - Jieux - Same State Tryptophan A]
false

Quick check, apparent KD of K4 kissing-loop reporter >= 200 nM? UCGAUAGCCAGCGAUACCAGCCCAGUGAUGUUGGGCACAUGGUUGCGGGAAAUCCUAUUGGGCCCUUGGCAGCGCUUGCAUGGGU [Anbixeza]
false

Quick check, apparent KD of K4 kissing-loop reporter >= 200 nM? UAAUGUGGCACAGGAUAUACUGAUUGGAGUGAUGUUCCAAACAUGGACGUGAGACUUUUACAAGAAGUAGAAGGGUGUUAGAUAU [Exclusion FMN B GF 20]
true

Quick check, apparent KD of K4 kissing-loop reporter >= 200 nM? AAACAUCACUGGGAGUGAUGUUCUCAGUGACGAGGACCGGUACGGCCGCCACUCGCGAGAGAUAUAGAUGAGUAAUGACAUCAUU [Excl Tryptophan A V3]
true

Quick check, apparent KD of K4 kissing-loop reporter >= 200 nM? GAUUUAGAGGCGGCCGCCACUAGUGAUGUUAGUGAUGUUUGAUACUGUAUAUAUCGGCGUGUAGAUAGGACCGGGCCAGAUGGAG [tbqqmullin]
true
